Each item that follows carries a reported pIC50.
biological target: Indoleamine 2,3-dioxygenase 1 (Homo sapiens, UniProt P14902); test: Inhibition of human recombinant IDO1 measured after 60 mins by fluorescence based analysis
Sequence (P14902 whole entry): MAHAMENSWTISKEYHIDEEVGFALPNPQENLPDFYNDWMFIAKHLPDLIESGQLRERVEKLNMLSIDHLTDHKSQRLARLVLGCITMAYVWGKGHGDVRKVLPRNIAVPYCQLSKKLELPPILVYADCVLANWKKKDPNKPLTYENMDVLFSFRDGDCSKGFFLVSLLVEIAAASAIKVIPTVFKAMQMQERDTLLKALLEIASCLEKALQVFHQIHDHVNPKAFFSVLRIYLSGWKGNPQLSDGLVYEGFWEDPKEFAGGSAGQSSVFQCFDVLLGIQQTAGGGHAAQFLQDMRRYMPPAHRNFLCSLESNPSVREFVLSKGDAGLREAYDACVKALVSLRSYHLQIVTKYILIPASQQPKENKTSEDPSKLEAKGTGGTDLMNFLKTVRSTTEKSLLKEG
In plain terms, pIC50 is the concentration in mol/L turned into minus its base-10 logarithm.

The reported pIC50 value, Indoleamine 2,3-dioxygenase 1 (Homo sapiens, UniProt P14902), for `COc1ccc(S(=O)(=O)N2CCN(C(=O)c3c/c(=N\O)c4ccc(C)cc4o3)CC2)cc1OC` reads 5.21

# pIC50 measured on Indoleamine 2,3-dioxygenase 1 (Homo sapiens, UniProt P14902) for item `COc1ccc2/c(=N/O)cc(C(=O)N3CCN(S(=O)(=O)c4cccc(F)c4)CC3)oc2c1` = 5.62

# lookup: `COc1ccc2/c(=N/O)cc(C(=O)N3CCN(S(=O)(=O)c4ccc(F)c(F)c4)CC3)oc2c1` on Indoleamine 2,3-dioxygenase 1 (Homo sapiens, UniProt P14902), pIC50 = 6.19

Form field, pIC50 with Indoleamine 2,3-dioxygenase 1 (Homo sapiens, UniProt P14902), item `COc1ccc2/c(=N/O)cc(C(=O)N3CCN(S(=O)(=O)c4cccc([N+](=O)[O-])c4)CC3)oc2c1` : 5.71

Tested on Indoleamine 2,3-dioxygenase 1 (Homo sapiens, UniProt P14902): `COc1ccc2/c(=N/O)cc(C(=O)N3CCN(S(=O)(=O)c4ccc(Cl)c(Cl)c4)CC3)oc2c1` . Observed pIC50: 5.43

Indoleamine 2,3-dioxygenase 1 (Homo sapiens, UniProt P14902) pIC50 of `COc1ccc(S(=O)(=O)N2CCN(C(=O)c3c/c(=N\O)c4ccc(C)cc4o3)CC2)cc1` is 5.02

====

target: UniProtKB P14902; test: Inhibition of IDO1 in IFN-gamma treated human HeLa cells incubated for 48 hrs by absorbance based analysis; assay type: cell-based
Property Label: pIC50
pIC50 field: float, defined as -log10 of concentration (mol/L).

{"columns": ["Line Notation", "Test Target", "pIC50"],
 "data": [
  ["Cc1ccc2/c(=N/O)cc(C(=O)N3CCN(S(=O)(=O)c4ccc(F)cc4)CC3)oc2c1", "UniProtKB P14902", 5.03],
  ["COc1ccc2/c(=N/O)cc(C(=O)N3CCN(S(=O)(=O)c4ccc(Cl)c(Cl)c4)CC3)oc2c1", "UniProtKB P14902", 5.12],
  ["Cc1ccc2/c(=N/O)cc(C(=O)N3CCN(S(=O)(=O)c4ccc(F)c(F)c4)CC3)oc2c1", "UniProtKB P14902", 5.24],
  ["COc1ccc2/c(=N/O)cc(C(=O)N3CCN(S(=O)(=O)c4cccc(F)c4)CC3)oc2c1", "UniProtKB P14902", 5.38],
  ["COc1ccc2/c(=N/O)cc(C(=O)N3CCN(S(=O)(=O)c4cccc(Br)c4)CC3)oc2c1", "UniProtKB P14902", 5.01]
]}

molecule `Cc1ccc2/c(=N/O)cc(C(=O)N3CCN(S(=O)(=O)c4cccc([N+](=O)[O-])c4)CC3)oc2c1` , pIC50 observed: 5.05

pIC50 in this record for `COc1ccc2/c(=N/O)cc(C(=O)N3CCN(S(=O)(=O)c4ccc(C(F)(F)F)cc4)CC3)oc2c1` : 5.20

Looking up `COc1ccc2/c(=N/O)cc(C(=O)N3CCN(S(=O)(=O)c4ccc(OC)c(OC)c4)CC3)oc2c1` , I found its pIC50 recorded as 5.77
